System name: UniProt:P33261
Sequence (P33261 whole entry): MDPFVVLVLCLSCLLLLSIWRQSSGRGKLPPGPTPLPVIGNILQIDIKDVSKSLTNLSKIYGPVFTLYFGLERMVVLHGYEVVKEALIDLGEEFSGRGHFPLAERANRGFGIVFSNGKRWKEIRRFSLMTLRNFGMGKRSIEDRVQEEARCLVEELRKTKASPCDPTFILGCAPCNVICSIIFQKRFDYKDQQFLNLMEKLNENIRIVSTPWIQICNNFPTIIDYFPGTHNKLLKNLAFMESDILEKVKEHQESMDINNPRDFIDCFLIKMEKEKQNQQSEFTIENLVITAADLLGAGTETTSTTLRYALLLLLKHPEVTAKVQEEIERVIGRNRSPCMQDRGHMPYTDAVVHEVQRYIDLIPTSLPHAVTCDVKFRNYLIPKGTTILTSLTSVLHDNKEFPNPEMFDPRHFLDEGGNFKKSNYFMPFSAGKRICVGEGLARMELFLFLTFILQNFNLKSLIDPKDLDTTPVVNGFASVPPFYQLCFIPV
Method description: Cytochrome panel assay with activity outcomes. Panel member name: p450-cyp2c19 Compounds with AC50 equal or less than 10 uM are considered active
Assay type: functional
Particulars: read-out: AC50
Here the recorded AC50 is given for each entry.
Readout: AC50

[[record]]
molecular_string = "O=C(c1ccco1)N1CCC[C@@]2(CCN(Cc3nccs3)C2)C1"
reported = "39.8 µM (inconclusive)"

[[record]]
molecular_string = "CC(C)c1nnc(NC(=O)CCC(=O)N2CCN(c3ccccn3)CC2)s1"
reported = "28.2 µM (inconclusive)"

[[record]]
molecular_string = "O=C(Nc1cccc2ccccc12)c1nn(C23CC4CC(CC(C4)C2)C3)cc1Br"
reported = "2.24 µM (inconclusive)"

